Test system: IFNγ
Test: LPS-induced human whole blood, IFNγ release
Assay type: cell-based
Details: Homo sapiens, 333.3333 nM, mean of donors
Procedure: Venous blood from human donors was collected as 10 ml aliquots in tubes containing sodium heparin (BD Vacutainer from Becton Dickinson and Company, Franklin Lakes, N.Y.). […] IL-1β, IFNγ and TNFα protein levels were measured using Meso Scale assay kits (Meso Scale Discovery, Gaithersburg, Md., U.S.A.). […] Read Buffer T (4×) was diluted 1:1 with mqH20 to 2× concentration and 150 μl added to each well. Plates were read on the SECTOR Imager 6000 (Meso Scale Discovery) to generate raw signal values. […]
// inhibition at 0.333333 µM lookup, one value per entry
Give the value in % but do not write % after it.

# Compound Structure String, Uom, inhibition at 0.333333 µM
measured = [
    ("Cc1ncccc1COc1ccc2c(c1)CC[C@@H]1C[C@@](O)(c3ccccc3)[C@@H](O)C[C@@]21Cc1ccccc1", "%", 2.02),
    ("Cc1ncccc1CNC(=O)c1ccc2c(c1)CC[C@@H]1C[C@@](O)(CCC(F)(F)F)CC[C@@]21Cc1ccccc1", "%", -6.32),
    ("C[C@]12C=CC(=O)C=C1CC[C@@H]1[C@@H]2[C@@H](O)C[C@@]2(C)[C@H]1CC[C@]2(O)C(=O)CO", "%", 94.8),
]

// returns reported inhibition at 0.333333 µM for input Oc1ccc2c(c1)CC[C@@H]1C[C@@](O)(c3ccccc3)[C@@H](O)C[C@@]21Cc1ccccc1
-3.3
